# Organism: Rattus norvegicus
# Measurement Description: Open TG-GATES - Regimen: Single
# Format: toxicity, organism-based, Sprague-Dawley
# Parameters: regimen Single, gender Male, age 6 weeks
# Measurement Parameters: in vivo, po, 300 mg/kg, 9 h, tissue Plasma, route gavage, dose level Middle

{"Compound": "COC1=CC(=O)C[C@@H](C)[C@]12Oc1c(Cl)c(OC)cc(OC)c1C2=O", "Units Of Measure": "g/dL", "TP": 5.4}
{"Compound": "NC(N)=Nc1nc(CSCCC(N)=NS(N)(=O)=O)cs1", "Units Of Measure": "g/dL", "TP": 5.4}
{"Compound": "COc1ccc2[nH]c([S+]([O-])Cc3ncc(C)c(OC)c3C)nc2c1 (centres undefined)", "Units Of Measure": "g/dL", "TP": 5.4}
{"Compound": "CCOC(=O)CCC(=O)O[C@H]1[C@H](O[C@@H]2[C@@H](C)[C@H](O[C@H]3C[C@@](C)(OC)[C@@H](O)[C@H](C)O3)[C@@H](C)C(=O)O[C@H](CC)[C@@](C)(O)[C@H](O)[C@@H](C)C(=O)[C@H](C)C[C@@]2(C)O)O[C@H](C)C[C@@H]1N(C)C [ERYTHROMYCIN ETHYLSUCCINATE]", "Units Of Measure": "g/dL", "TP": 5.5}

----------
# Species: Rattus norvegicus
# Measurement Description: Open TG-GATES - Regimen: Single
# Format: toxicity, organism-based, Sprague-Dawley
# Set-up: regimen Single, gender Male, age 6 weeks
# Measurement Parameters: in vivo, po, 100 mg/kg, 24 h, tissue Blood, route gavage, dose level High
The entries below come with measured Bas values attached.

{"Smiles Data": "CN(C)CCN(Cc1cccs1)c1ccccn1", "Units Of Measure": "%", "Bas": 0}
{"Smiles Data": "CN(C)CCCN1c2ccccc2CCc2ccccc21", "Units Of Measure": "%", "Bas": 0}
{"Smiles Data": "CN(C)CCCN1c2ccccc2CCc2ccc(Cl)cc21", "Units Of Measure": "%", "Bas": 0.2}
{"Smiles Data": "CC1=C(/C=C/C(C)=C/C=C/C(C)=C/CO)C(C)(C)CCC1", "Units Of Measure": "%", "Bas": 0}

----------
The entries below come with measured RBC values attached.
# Species: Rattus norvegicus
# Measurement Description: Open TG-GATES - Regimen: Daily Repeat
# Format: toxicity, organism-based, Sprague-Dawley
# Set-up: regimen Daily Repeat, gender Male, age 6 weeks
# Measurement Parameters: in vivo, po, 0 mg/kg, […], tissue Blood, route gavage, dose level Control, time 28 day
Observed Property: RBC

{"Molecule": "CC1=C(/C=C/C(C)=C/C=C/C(C)=C/CO)C(C)(C)CCC1", "Result": "778.2 x10_4/ul"}
{"Molecule": "CCCNC(=O)NS(=O)(=O)c1ccc(Cl)cc1 [CHLORPROPAMIDE]", "Result": "787.4 x10_4/ul"}
{"Molecule": "CN1C(=O)CN=C(c2ccccc2)c2cc(Cl)ccc21", "Result": "833 x10_4/ul"}
{"Molecule": "CN(C)CCCN1c2ccccc2CCc2ccccc21", "Result": "761.4 x10_4/ul"}
{"Molecule": "COC1=CC(=O)C[C@@H](C)[C@]12Oc1c(Cl)c(OC)cc(OC)c1C2=O", "Result": "774.2 x10_4/ul"}
{"Molecule": "CCOc1ccc(NC(=O)CC(C)O)cc1 (stereo not given)", "Result": "778.4 x10_4/ul"}
{"Molecule": "O=C(CCCN1CCC(O)(c2ccc(Cl)cc2)CC1)c1ccc(F)cc1", "Result": "787.6 x10_4/ul"}
{"Molecule": "NC(N)=Nc1nc(CSCCC(N)=NS(N)(=O)=O)cs1", "Result": "769 x10_4/ul"}
{"Molecule": "COc1ccc2[nH]c([S+]([O-])Cc3ncc(C)c(OC)c3C)nc2c1 (stereo not given)", "Result": "804.8 x10_4/ul"}
{"Molecule": "NNC(=O)c1ccncc1", "Result": "790.6 x10_4/ul"}
